Target: T1, human ADAMTS5 (human, UniProt Q9UNA0 262-622, limits assumed)
T1 construct: Octet and ELISA used 'recombinant human ADAMTS5'; also called recombinant human ADAMTS5; ADAMTS5 (R&D Systems 2198-AD)
T1 sequence: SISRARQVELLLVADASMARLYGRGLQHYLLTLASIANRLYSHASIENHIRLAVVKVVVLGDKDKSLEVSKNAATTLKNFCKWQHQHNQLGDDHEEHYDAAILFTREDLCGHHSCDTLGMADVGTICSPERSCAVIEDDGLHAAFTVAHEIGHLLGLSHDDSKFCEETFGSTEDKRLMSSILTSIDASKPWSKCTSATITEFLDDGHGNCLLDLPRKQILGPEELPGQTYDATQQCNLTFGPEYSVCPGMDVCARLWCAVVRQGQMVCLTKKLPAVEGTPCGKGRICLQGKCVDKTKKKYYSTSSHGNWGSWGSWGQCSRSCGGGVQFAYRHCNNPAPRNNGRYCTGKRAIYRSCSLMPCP
Experiment: Biacore, mAb from culture supernatant captured on anti-human IgG, ADAMTS5 (R&D 2198-AD) at 64 nM, 1:1 fit
pKd: −log10 of the molar value.

BINDER | pKd
BPC1656 (antibody, human IgG1, kappa, V domains shown, Humanized, human gamma 1 / kappa; also called 12F4 H1L0) VH: EVQLLESGGGLVQPGGSLRLSCAASGFTFSDAWMDWVRQAPGKGLEWVSEIRHKANDHAIFYDESVKGRFTISRDNSKNTLYLQMNSLRAEDTAVYYCTSPFAYWGQGTLVTVSS VL: DIQMTQSPSSLSASVGDRVTITCKASQSVGTTIVWYQQKPGKAPKLLIYSASNRHTGVPSRFSGSGSGTDFTLTISSLQPEDFATYYCQQYTSYPFTFGQGTKLEIKR | 9.20
BPC1654 (antibody, human IgG1, kappa, V domains shown, Humanized, human gamma 1 / kappa; also called 7B4 H6L2) VH: EVQLVESGGGLVQPGGSLRLSCAASGFTSSDAWMDWVRQAPGKGLEWVAEIRNKANNHARHYAESVKGRFTISRDDAKNSVYLQMNSLRAEDTAVYYCTRTYYYGSSYGYCDVWGQGTLVTVSS VL: DIQMTQSPSSLSASVGDRVTITCRTSENIYSYLAWYQQKPGKAPQLLVYNAKTLAEGVPSRFSGSGSGTDFTLTISSLQPEDFATYYCQHHYGTPWTFGQGTKLEIKR | 8.96
